// provenance: patent US20190092852A1

# Maximum Blocking values compiled below
Molecular target: T1, biotinylated cyno IL-33 (cynomolgus monkey, UniProt A0A2K5W3I1 112-269, biotin-labeled with EZ-LINK NHS-PEG4-Biotin)
T1 construct: also called biotin-cyIL-33
T1 sequence: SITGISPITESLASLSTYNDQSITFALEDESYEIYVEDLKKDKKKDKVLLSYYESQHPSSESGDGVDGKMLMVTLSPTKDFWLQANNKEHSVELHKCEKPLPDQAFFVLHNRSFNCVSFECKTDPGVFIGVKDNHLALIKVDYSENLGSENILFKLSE
Experiment: competitive ELISA, biotin-cyIL-33 to coated hST2-Fc
# number only, unit % dropped from output

Here are 4 binders together with their reported answers.
{"columns": ["binder", "experimental.value"],
 "data": [
  ["H4H9640P (antibody, IgG4, V domains shown, also called RG6) VH: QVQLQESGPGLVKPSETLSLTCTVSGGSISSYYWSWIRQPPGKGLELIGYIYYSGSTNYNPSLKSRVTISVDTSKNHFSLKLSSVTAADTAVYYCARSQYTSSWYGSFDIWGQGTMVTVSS VL: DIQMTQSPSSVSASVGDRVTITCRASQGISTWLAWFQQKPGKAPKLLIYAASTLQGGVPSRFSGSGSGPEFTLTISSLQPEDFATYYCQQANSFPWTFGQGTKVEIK", 25],
  ["H4H9665P (antibody, V domains shown) VH: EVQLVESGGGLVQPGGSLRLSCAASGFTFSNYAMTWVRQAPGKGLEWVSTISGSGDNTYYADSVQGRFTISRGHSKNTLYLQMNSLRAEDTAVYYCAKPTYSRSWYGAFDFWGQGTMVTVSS VL: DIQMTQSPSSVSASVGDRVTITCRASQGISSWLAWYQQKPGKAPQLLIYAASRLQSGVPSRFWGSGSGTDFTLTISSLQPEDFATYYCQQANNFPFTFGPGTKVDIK", 53],
  ["H4H9663P (antibody, V domains shown) VH: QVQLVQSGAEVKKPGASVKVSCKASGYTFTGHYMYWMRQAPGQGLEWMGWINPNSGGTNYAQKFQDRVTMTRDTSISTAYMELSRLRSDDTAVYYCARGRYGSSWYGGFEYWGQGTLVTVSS VL: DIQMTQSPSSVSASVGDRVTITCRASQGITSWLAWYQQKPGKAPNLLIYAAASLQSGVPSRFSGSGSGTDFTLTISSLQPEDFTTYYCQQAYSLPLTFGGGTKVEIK", 61],
  ["H4H9659P (antibody, IgG4, V domains shown, also called RG7) VH: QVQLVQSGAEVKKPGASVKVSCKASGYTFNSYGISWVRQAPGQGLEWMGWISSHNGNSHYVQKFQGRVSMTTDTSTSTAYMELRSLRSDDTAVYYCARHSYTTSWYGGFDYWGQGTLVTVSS VL: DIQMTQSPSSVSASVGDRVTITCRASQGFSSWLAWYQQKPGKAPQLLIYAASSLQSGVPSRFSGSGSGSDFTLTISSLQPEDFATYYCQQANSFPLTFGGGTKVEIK", 42]
]}

Proceeding to the next binder to report its Maximum Blocking.
// query Maximum Blocking value for entry H4H9660P (antibody, V domains shown) VH: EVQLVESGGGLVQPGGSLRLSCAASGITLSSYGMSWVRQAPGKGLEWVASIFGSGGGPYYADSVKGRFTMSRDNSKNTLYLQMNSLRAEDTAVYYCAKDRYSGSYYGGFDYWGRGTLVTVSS VL: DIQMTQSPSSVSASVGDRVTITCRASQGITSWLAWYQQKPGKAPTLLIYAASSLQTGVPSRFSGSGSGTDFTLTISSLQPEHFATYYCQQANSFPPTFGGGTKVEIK 18
